tgt: PCP site of the NMDA receptor (cortical)
assay text: [3H]-MK-801 binding, PCP site of NMDA receptor, rat cortical membranes
measurement conditions: rat cortex membranes, [3H]-MK-801 5 nM, 10 μM glutamate, 10 μM glycine
Structures can show the parent of a compound that is named as a salt.
value kind: IC50

1) N=C(N)CC(c1ccccc1)C12CC3CC(CC(C3)C1)C2 (stereo not drawn) [Example 18, hydrochloride]: 27 µM
2) CC12CC3CC(C1)CC(C(=N)N)(C3)C2.Cl [Example 12, hydrochloride]: 96 µM
3) CC12CC3CC(C)(C1)CC(CC(=N)N)(C3)C2 [Example 5, hydrochloride]: 82 µM
4) Cl.N=C(N)C(Cc1ccccc1)C12CC3CC(CC(C3)C1)C2 (stereo not drawn) [Example 16, hydrochloride]: 52 µM
5) CC12CC3(C)CC(C)(C1)CC(C(=N)N)(C2)C3.Cl [Example 13, hydrochloride]: 43 µM
6) Cl.N=C(N)C12CC3CC(C1)CC(c1ccc([N+](=O)[O-])cc1)(C3)C2 [Example 14, hydrochloride]: 406 µM
